# Experiment notes: Permeability of the compound in porcine brain incubated for 18 hrs by PAMPA-BBB assay
# Assay type: ADME, Sus scrofa
# Condition parameters: pig, read-out: permeability
Reported metric: Papp at 18 h
Remember to put the unit after the number in your answer.

stdin: Using the record for `Oc1cc(OCc2ccc(F)cc2)ccc1CNc1ccccc1` , report its Papp at 18 h.
stdout: 8.62 ×10⁻⁶ cm/s

* * *

Please go through the items and note down their IC50.
Target sequence: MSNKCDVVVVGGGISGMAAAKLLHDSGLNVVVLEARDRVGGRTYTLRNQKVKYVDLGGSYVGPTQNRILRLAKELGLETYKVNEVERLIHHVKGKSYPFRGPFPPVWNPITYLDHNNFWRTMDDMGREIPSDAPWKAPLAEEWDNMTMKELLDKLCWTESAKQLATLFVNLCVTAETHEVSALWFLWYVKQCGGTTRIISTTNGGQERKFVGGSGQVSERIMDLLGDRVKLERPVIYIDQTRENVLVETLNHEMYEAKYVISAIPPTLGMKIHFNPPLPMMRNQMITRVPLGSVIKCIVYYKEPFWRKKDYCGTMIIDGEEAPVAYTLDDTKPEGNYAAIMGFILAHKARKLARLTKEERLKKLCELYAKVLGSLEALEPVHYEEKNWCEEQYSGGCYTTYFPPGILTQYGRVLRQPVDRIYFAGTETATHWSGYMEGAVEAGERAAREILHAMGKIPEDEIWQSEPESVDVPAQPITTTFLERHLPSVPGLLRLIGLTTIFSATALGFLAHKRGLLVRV
Remember to put the unit after the number in your answer.

Structure smiles	IC50
Oc1cc(OCc2ccccc2)ccc1CNc1ccccc1	481 nM
Oc1cc(OCc2ccc(F)c(F)c2)ccc1CNc1ccccc1	21 nM
Oc1cc(OCc2ccccc2F)ccc1CNc1ccccc1	334 nM
COc1cccc(COc2ccc(CNc3ccccc3)c(O)c2)c1	343 nM

List the reported IC50 of each molecule below.
1. Cc1ccc(COc2ccc(CNc3ccccc3)c(O)c2)cc1
2. Oc1cc(OCc2cccc(F)c2)ccc1CNc1ccccc1

stdout:
["366 nM", "95 nM"]

* * *

# Target entity: Amine oxidase [flavin-containing] A (Homo sapiens)
# Sequence (P21397 whole entry): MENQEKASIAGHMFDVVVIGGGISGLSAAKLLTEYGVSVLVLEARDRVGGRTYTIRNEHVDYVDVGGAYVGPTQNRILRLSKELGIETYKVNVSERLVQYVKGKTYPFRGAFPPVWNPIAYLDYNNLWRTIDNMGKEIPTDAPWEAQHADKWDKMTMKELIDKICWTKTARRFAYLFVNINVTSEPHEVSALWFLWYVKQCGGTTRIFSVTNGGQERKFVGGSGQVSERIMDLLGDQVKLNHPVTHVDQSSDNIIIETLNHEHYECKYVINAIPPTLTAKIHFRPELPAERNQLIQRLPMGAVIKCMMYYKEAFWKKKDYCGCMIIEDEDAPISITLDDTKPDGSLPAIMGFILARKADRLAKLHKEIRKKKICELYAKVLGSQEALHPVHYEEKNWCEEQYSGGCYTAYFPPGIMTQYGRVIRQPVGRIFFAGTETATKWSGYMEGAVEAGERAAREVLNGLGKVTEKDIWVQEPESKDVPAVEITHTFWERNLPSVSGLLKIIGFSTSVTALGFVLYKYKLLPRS
# Experiment notes: Inhibition of MAO-A (unknown origin) using kynuramine as substrate at 10 uM preincubated for 30 mins followed by substrate addition and measured after 30 mins by fluorescence based analysis relative to control
# Condition parameters: 0.5 h, time 60 min
# cutoff 30% applies to inhibition at 10 µM; >= gives true, < gives false

Below, 5 compounds whose answers are already recorded.
Compound	Target entity	Answer label
Oc1cc(OCc2ccccc2Cl)ccc1CNc1ccccc1	Amine oxidase [flavin-containing] A (Homo sapiens)	false
Oc1cc(OCc2ccc(F)cc2)ccc1CNc1ccccc1	Amine oxidase [flavin-containing] A (Homo sapiens)	true
Oc1cc(OCc2ccc(Cl)c(Cl)c2)ccc1CNc1ccccc1	Amine oxidase [flavin-containing] A (Homo sapiens)	true
Cc1ccc(COc2ccc(CNc3ccccc3)c(O)c2)cc1	Amine oxidase [flavin-containing] A (Homo sapiens)	false
Oc1cc(OCc2cccc(F)c2)ccc1CNc1ccccc1	Amine oxidase [flavin-containing] A (Homo sapiens)	false

Now consider a different compound.
stdin: Hi team, for `Oc1cc(OCc2ccc(Cl)cc2)ccc1CNc1ccccc1` , is the recorded inhibition at 10 µM at or above 30%?
stdout: true

* * *

# Target entity: UniProt:P21397
# Experiment notes: Inhibition of MAO-A (unknown origin) using kynuramine as substrate at 10 uM preincubated for 30 mins followed by substrate addition and measured after 30 mins by fluorescence based analysis relative to control
# Condition parameters: 0.5 h, time 60 min
Reported metric: inhibition at 10 µM (%)
Numbers only, in %.

These solved cases illustrate the format of a correct answer.
Molecule	Target entity	inhibition at 10 µM / %
O=[N+]([O-])c1ccc(COc2ccc(CNc3ccccc3)c(O)c2)cc1	UniProt:P21397	30.6
Oc1cc(OCc2ccc(F)c(F)c2)ccc1CNc1ccccc1	UniProt:P21397	48
Oc1cc(OCc2cccc(Cl)c2)ccc1CNc1ccccc1	UniProt:P21397	20.5
Oc1cc(OCc2ccc(F)c(Cl)c2)ccc1CNc1ccccc1	UniProt:P21397	49.2
Oc1cc(OCc2ccc(F)cc2)ccc1CNc1ccccc1F	UniProt:P21397	38.3

List the reported inhibition at 10 µM of each molecule below.
1. Oc1cc(OCc2cccc(C(F)(F)F)c2)ccc1CNc1ccccc1
2. Oc1cc(OCc2ccccc2)ccc1CNc1ccccc1
3. Oc1cc(OCc2ccccc2F)ccc1CNc1ccccc1
4. C[C@H](NCc1ccc(OCc2cccc(F)c2)cc1)C(N)=O [SAFINAMIDE]
5. Oc1cccc(NCc2ccc(OCc3ccc(F)cc3)cc2O)c1

stdout:
1. 9.25
2. 14.7
3. 8.34
4. 25.7
5. 35.5
